test: 1-octanol-water partition co-efficient, log P of the compound; assay type: physicochemical
Each entry below lists one item and its recorded logP value.
// return a plain number; no unit text

Here's what some known entries look like.
> print(dat)
                                     smiles  result
1  COc1cccc(OC)c1C(=O)Nc1nnc(-c2ccc(C#N)cc2)s1    3.14
2  COc1cccc(OC)c1C(=O)Nc1nnc(-c2ccc(Br)cc2)s1    3.96
3  COc1cccc(OC)c1C(=O)Nc1nnc(-c2ccc(F)cc2)s1     3.5
4  COc1ccc(-c2nnc(NC(=O)c3c(OC)cccc3OC)s2)cc1    3.56
5  COc1cccc(OC)c1C(=O)Nc1nnc(-c2ccc([N+](=O)[O-])cc2)s1    2.54
6    COc1cccc(OC)c1C(=O)Nc1nnc(-c2ccccc2)s1     3.5

Query: // returns reported logP for input COc1cccc(OC)c1C(=O)Nc1nnc(-c2ccc(Cl)cc2)s1
Reply: 3.96

Query: // returns reported logP for input COc1cccc(OC)c1C(=O)Nc1nnc(-c2ccc(C)cc2)s1
Reply: 3.85

Query: // returns reported logP for input CCOc1ccc(-c2nnc(NC(=O)c3c(OC)cccc3OC)s2)cc1
Reply: 3.75

* * *

system: Chilo suppressalis; test: Inhibition of chitin synthesis in 20-hydroxyecdysone-stimulated Chilo suppressalis (rice stem borer) larval integument assessed as inhibition of N-acetyl-{1-14C]-glucosamine at pI50 after 72 hr by liquid scintillation counting; type: functional
measurement-label: inhibition (INH) (%)
Give just the numeric value; % need not be written.

Here's what some known entries look like.
> print(dat)
                                     smiles  measurement.label  unit.abbrev  result
1     O=C(Nc1nnc(-c2ccc(Cl)cc2)s1)c1ccccc1I   inhibition (INH)            %      17
2  O=C(Nc1nnc(-c2ccc(Cl)cc2)s1)c1c(F)cccc1F   inhibition (INH)            %      42
3    O=C(Nc1nnc(-c2ccc(Cl)cc2)s1)c1ccccc1Cl   inhibition (INH)            %      37
4  CCN(CC)c1ccccc1C(=O)Nc1nnc(-c2ccc(Cl)cc2)s1   inhibition (INH)            %       8
5  O=C(Nc1nnc(-c2ccc(Cl)cc2)s1)c1ccccc1[N+](=O)[O-]   inhibition (INH)            %       0
6   CCOc1ccccc1C(=O)Nc1nnc(-c2ccc(Cl)cc2)s1   inhibition (INH)            %      23
7    O=C(Nc1nnc(-c2ccc(Cl)cc2)s1)c1ccccc1Br   inhibition (INH)            %      32
8      O=C(Nc1nnc(-c2ccc(Cl)cc2)s1)c1ccccc1   inhibition (INH)            %      10

For the next question, use this molecule.
Query: Can you look up inhibition (INH) on Chilo suppressalis for O=C(Nc1nnc(-c2ccc(Cl)cc2)s1)c1ccccc1C(F)(F)F ?
Reply: 7
